# maps each entry to its TGI
Tested on: OVCAR-4 ovarian
Assay details: NCI tumour cell line growth inhibition, 48 h
Measure: TGI

INSERT INTO results (compound, result_value) VALUES
  ('COC(=O)C1=C(C)NC(C)=C(C(=O)OC)C1c1cccc(NO)c1', '27.8 µM'),
  ('CCCCCC[C@H]1C(=O)O[C@H](C)[C@H](NC(=O)c2cccc(NC=O)c2OC)C(=O)O[C@@H](C)[C@@H]1OC(=O)CC(C)C (tested in a mixture with another compound)', '24.9 µM'),
  ('Cc1ccc2c(C)c3ccc4ccccc4c3c[n+]2c1', '45.4 µM'),
  ('CCOC(=O)C1=C(Nc2cccc3ccccc23)OC/C1=N\NC(=O)c1ccccc1O', '> 59.1 µM'),
  ('COC(=O)[C@@]12C(=O)C(C)C(=O)[C@]1(C)C(C)=C[C@H]1[C@]3(C=O)CC[C@H](OC(C)=O)C(C)(C)[C@H]3CC[C@@]12C (stereo partly specified)', '> 100 µM'),
  ('CC(C)N1C(NNC(=O)c2cnccn2)=NS(=O)(=O)c2ccccc21', '> 100 µM'),
  ('C/C(=N\NC(=S)Nc1ccc(C)cc1)c1nc2ncccc2[nH]1', '16.7 µM'),
  ('CC(C)CC(NC(=O)C(CCI)Cc1ccccc1)C(=O)Nc1ccccc1 (stereo unspecified)', '> 100 µM'),
  ('O=c1[nH]c(-c2ccccc2)nc2c1sc1nc3ccccc3n12', '> 100 µM'),
  ('Cc1c(Cl)cccc1NC1=C(Cl)C(=O)N(Cc2ccccc2)C1=O', '34 µM'),
  ('Cc1ccc(Sc2ccc(C)cc2[N+](=O)[O-])c([N+](=O)[O-])c1', '> 100 µM'),
  ('Cn1cnc(N2CCCC2)c(C#N)c1=O', '> 100 µM'),
  ('Cc1[nH]c2ccccc2c1CCNCc1ccc(/C=C/C(=O)NO)cc1', '0.0585 µM'),
  ('Cc1ccc(Nc2nc(NS(=O)(=O)c3cc(C(=O)Nc4ccc(Cl)cc4)c(Cl)cc3S)n[nH]2)cc1', '> 100 µM'),
  ('COc1cccc2nc3cc(C)c(C)cc3nc12', '> 100 µM'),
  ('CCOP(=O)(CN=C(c1ccccc1)c1ccccc1)OCC', '> 100 µM'),
  ('CCOC(=O)Nc1nn(C)c(=NCc2ccccc2)s1', '> 100 µM'),
  ('CCOC(=O)/C=C(\C(=O)OCC)n1ccc(=O)n(CC(=O)OCC)c1=O', '> 31.2 µM'),
  ('COc1cc(Oc2nc3c(N)cc(C(F)(F)F)cc3nc2-c2ccccc2)cc(OC)c1OC', '> 100 µM'),
  ('Nc1ncnc2c1cnn2Cc1cn(COCC(O)CO)nn1 (stereo unspecified)', '> 100 µM'),
  ('CCOc1ncn(-c2ccc(NC(=S)NC34CC5CC(CC(C5)C3)C4)cc2)n1', '> 100 µM');

* * *

# maps each entry to its TGI
System: NCI/ADR-RES ovarian
Assay details: NCI tumour cell line growth inhibition, 48 h
Measure: TGI

INSERT INTO measurements (compound, assayed_system, measure, result_value) VALUES
  ('Cc1c(Cl)cccc1NC1=C(Cl)C(=O)N(Cc2ccccc2)C1=O', 'NCI/ADR-RES ovarian', 'TGI', '20.9 µM'),
  ('O=c1cc(N=Nc2ccc(O)cc2)[nH]c(=O)[nH]1', 'NCI/ADR-RES ovarian', 'TGI', '> 100 µM'),
  ('CC(=O)O[C@H]1CCn2c3c(c(C)c21)C(=O)C(N1CC1)=C(C)C3=O', 'NCI/ADR-RES ovarian', 'TGI', '> 10 µM'),
  ('NC(=S)N/N=C1\c2ccccc2CCC1CCC1(O)CCc2ccccc2C1=O (stereo not given)', 'NCI/ADR-RES ovarian', 'TGI', '79.1 µM'),
  ('CC(C)(C)[Si](C)(C)OCCOCn1cc(F)c(=O)[nH]c1=O', 'NCI/ADR-RES ovarian', 'TGI', '> 100 µM'),
  ('Cc1n[nH]c(=O)n1/N=C\CC/C=N\n1c(C)n[nH]c1=O', 'NCI/ADR-RES ovarian', 'TGI', '> 100 µM'),
  ('Cc1ccc(Nc2nc(NS(=O)(=O)c3cc(C(=O)Nc4ccc(Cl)cc4)c(Cl)cc3S)n[nH]2)cc1', 'NCI/ADR-RES ovarian', 'TGI', '> 100 µM'),
  ('O=C(O)CC1OCC=C2CN3CCC45C6=CC(=O)C(=O)C([N+](=O)[O-])=C6NC4C1C2CC35 (stereo not given)', 'NCI/ADR-RES ovarian', 'TGI', '> 100 µM'),
  ('S=C(Nc1cc(Cl)c(Cl)cc1Cl)SCc1ccccc1', 'NCI/ADR-RES ovarian', 'TGI', '54.6 µM'),
  ('CCOP(=O)(OCC)C1=C(c2ccccc2)OC(N)=C(C#N)C1c1ccc(Cl)cc1 (stereo not given)', 'NCI/ADR-RES ovarian', 'TGI', '> 100 µM');
